Assignment: determine reported Plant response rating, Ragweed for the given molecules.
- System: ragweed (common ragweed, Ambrosia elatior)
- assay-notes: Test A preemergence
- Type: in vivo
- run-parameters: 125 g ai/ha, Preemergence; visual injury after approximately 10 d; 0 to 100 scale where 0 is no effect and 100 is complete control
Lab note: write the figure by itself, no unit.

## Task // query Plant response rating, Ragweed value for entry O=C(Nc1ccccc1F)C1C(=O)N(CC=CBr)CC1c1cccc(C(F)(F)F)c1 (stereo not shown)
## Result 0

## Task Entry to check: CCc1cc(C2CNC(=O)C2C(=O)Nc2cccc(F)c2F)cs1 (racemic)
## Result 50

## Task Entry to check: CN1CC(c2cccc(OC(F)F)c2)C(C(=O)Nc2cccc(F)c2F)C1=O (stereo not shown)
## Result 80

## Task Entry to check: O=C1NCC(c2ccc(C(F)(F)F)c(F)c2)C1C(=O)Nc1ccccc1F (racemic)
## Result 40
